Just for reference, a melting point compilation (Tetko et al.; mined from patent text by program, amines drawn as free bases though some values may be those of a salt) is where these values come from.

Item-by-item account of melting point

A selection of reference data follows.
CCC(=O)c1ccc(C(O)C(C)(C)C)cc1 (stereo not given): 88 to 91 °C
O=C(O)CCCN1CCN(C(=O)c2cc(C(F)(F)F)cc(C(F)(F)F)c2)[C@H](Cc2c[nH]c3ccccc23)C1: 112 to 120 °C
CCOc1nc2cccc(C(=O)O)c2n1Cc1ccc(-c2ccccc2C(=O)O)cc1: 213 to 215 °C
COc1ccc2c(c1)Nc1cccc(SC)c1S2: 152 to 154 °C
COc1ccc2cc(OCc3ccccc3)c(N)cc2c1: 149 to 151 °C

The recorded melting point for entry CC(=O)OCC1OC(Oc2ccsc2Cc2ccc(OC(F)(F)F)cc2)C(OC(C)=O)C(OC(C)=O)C1OC(C)=O (stereo not given) equals 113 to 114 °C

Notebook: Cc1nc2c3c(c(C(=O)NCC(O)CO)cc2n1C)CCC(c1ccccc1)O3 (stereo not given) , melting point read as 268 to 270 °C

Lab note: measured melting point of `CC(C)(C)c1nn(C(C)(C)C)c(N)c1C#N` was 78 to 80 °C
